These entries and their values trace back to paper PMC5540273.

System: MAP4K3;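 note: KINOMEscan kinase panel screen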
Details: concentration: 1 μM, replicates: in singlicate; n = 1
Quick reference for %Inh among some molecules
QUANTITY_NAME: %Inh

In [3]: df
Out[3]:
                                    molecule  quantity_name  measured_result
 0  COc1ccc(-c2coc3ccc(-c4nnc(SCc5cccc(C#N)c5)o4)cc23)cc1           %Inh              13%
 1  CCC(=O)c1c(-c2ccccc2)c2cc(Cl)ccc2c(=O)n1Cc1cc(S(C)(=O)=O)n(CCC(C)(C)O)n1           %Inh               0%
 2  COc1cc2nccc(Nc3cccc(Oc4ccccc4)c3)c2cc1OC.Cl [GW284543]           %Inh               0%
 3  Nc1nccc2scc(-c3ccc4c(c3)CCN4C(=O)Cc3ccccc3)c12 [GSK2576924]           %Inh              17%
 4  COc1cc(Nc2nccc(N3CCC(NC(=O)C4COc5ccccc5O4)C3)n2)cc(OC)c1OC (stereo not drawn) [GSK1379761]           %Inh               2%
 5  COc1cc(Nc2ccnc3ccc(C(F)(F)F)cc23)cc(OC)c1OC [GW577382]           %Inh               0%
 6  COc1cccc(C2=C(Nc3cccc(C(=O)O)c3)C(=O)NC2=O)c1 [SB-390770]           %Inh              11%
 7  Cc1c(Cn2c(C)nn3c(=O)cc(N4CCO[C@H](C)C4)nc23)cccc1C(F)(F)F [GSK2373690]           %Inh               0%
 8  O=C(Nc1n[nH]c2nc(-c3ccccc3)c(Br)cc12)C1CC1 [SB-708998]           %Inh               0%
 9  Nc1n[nH]c2ncc(-c3ccccc3)cc12 [SB-517081]           %Inh               0%
10  COC(=O)c1c(-c2ccccc2)c2cc(Br)ccc2c(=O)n1Cc1ccc(S(C)(=O)=O)cc1           %Inh               0%
11  COC(=O)c1c(-c2ccccc2)c2cc(C)ccc2c(=O)n1Cc1ccccc1           %Inh               0%
12  O=C(Nc1n[nH]c2nc(-c3ccccc3)c(Cl)cc12)C1CC1 [SB-734909]           %Inh              15%
13  Cc1cccc(-c2cc(-c3c[nH]nc3-c3ccccn3)ccn2)c1 [GW679395]           %Inh               0%
14      Nc1ncnc2c1ncn2-c1ccc(Cl)cc1 [AH2635]           %Inh               0%
15  COC(=O)c1c(-c2ccccc2)c2cc(Br)ccc2c(=O)n1Cc1ccc(NC(=O)CCC(=O)O)cc1           %Inh               0%
16  COc1cc2ncn(-c3cc(OCc4ccncc4Br)c(C(N)=O)s3)c2cc1OC [GW854278]           %Inh               0%
17        CCc1nc(-c2cccc(C)c2)c(-c2ccncc2)s1           %Inh               0%
18  Cl.c1ccc(Cn2cnc3cc(Nc4ncnc5ccccc45)ccc32)cc1 [GW272142]           %Inh               0%
19  Cn1c(=O)c(F)c(Nc2ccc(I)cc2F)c2c(=O)n(OC[C@H](O)CO)cnc21           %Inh               0%
20  COc1cc2ncn(-c3cc(OCc4ccc(S(C)(=O)=O)cc4)c(C(N)=O)s3)c2cc1OC [GW869979]           %Inh               0%
21  CCn1c(-c2nonc2N)nc2ccccc21 [SB-693162/GW549034]           %Inh               0%
22  O=C(NCc1cccs1)c1cc(C(=O)c2c(Cl)cccc2Cl)c[nH]1 [GW823670]           %Inh               0%
23  Cc1nn2c(=O)cc(N3CCOCC3)nc2n1Cc1cccc(Cl)c1Cl [GSK2342769]           %Inh               0%
